# System under test: T1, LGP2 RD W604A (human, UniProt Q96C10 537-678, W604A)
# T1 sequence: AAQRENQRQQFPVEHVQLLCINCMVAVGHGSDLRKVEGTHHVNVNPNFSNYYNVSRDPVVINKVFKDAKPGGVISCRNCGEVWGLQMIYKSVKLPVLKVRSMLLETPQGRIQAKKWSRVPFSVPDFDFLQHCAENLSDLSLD
# Test name: fluorescence anisotropy
Property name: pKd
One number for each entry, as −log10 of the molar value.

Query: I have this binder here, 25 bp dsRNA (dsRNA) RNA 1: GCUUGUCGGGAGCGCCACCCUCUGC RNA 2: GCAGAGGGUGGCGCUCCCGACAAGC , and I need its recorded pKd.
Reply: 6.87
